# assay-target: human H4 receptor (Homo sapiens (Human))
# experiment: Binding assay on recombinant human histamine H4 receptor ([3H]histamine competition, SK-N-MC cell membranes)
# measurement-setup: membranes harvested with cell harvester; [3H]histamine 10 nM; average of results; read-out: Cell Harvester Ki
pKi: −log10 of the molar value.
recorded-endpoint: pKi

Worked set:
molecule	assay-target	recorded-endpoint	recorded-result
NC1CN(c2cnnc(NCC3CCCC3)c2)C1 [Example 358]	human H4 receptor (Homo sapiens (Human))	pKi	< 5.00
CN1CCN(c2cnnc(NCc3ccccc3)c2)CC1 [Example 410]	human H4 receptor (Homo sapiens (Human))	pKi	< 5.00
Cc1ccc(CNc2cc(N3CC[C@@H](N)C3)cnn2)cc1 [Example 343]	human H4 receptor (Homo sapiens (Human))	pKi	< 5.00

Turning to the following molecule.
Let me know recorded pKi for CCCCNc1nccc(N2CCNCC2)n1 [Example 68] , thanks.
7.44

----------
# assay-target: human H4 receptor (Homo sapiens (Human), UniProt Q9H3N8)
# experiment: Binding assay on recombinant human histamine H4 receptor ([3H]histamine competition, SK-N-MC cell membranes)
# measurement-setup: membranes harvested with cell harvester; [3H]histamine 10 nM; average of results; read-out: Cell Harvester Ki
# Method: Binding Assay on Recombinant Human Histamine H4Receptor Cell pellets from SK-N-MC cells stably or transiently transfected with human H4 receptor (NCBI accession No. AF312230) were used for the binding assays. Cell pellets were homogenized in 50 mM Tris/5 mM EDTA buffer and supernatants from an 800 g spin were collected and recentrifuged at 30,000 g for 30 min. […] Filters were then dried, mixed with scintillant and radioactive counts were determined. […]
pKi: −log10 of the molar value. Where a name gives a salt, the structure may show the parent alone.
recorded-endpoint: pKi

compound	recorded-endpoint	recorded-result
CN[C@@H]1CCN(c2ccnc(NC3CC3)c2)C1 [Example 8, dihydrochloride]	pKi	7.97

a = N[C@@H]1CCN(c2ccnc(NC3CCOCC3)n2)C1
b = CN[C@@H]1CCN(c2ccnc(NC[C@H]3CC[C@H]4C[C@@H]3C4(C)C)n2)C1
c = CCCCNc1nccc(N2CC[C@@H](NC)C2)n1
Reorder: pKi, max to min. Show the ranking through the labels, in the order asked for.
c, b, a

----------
# assay-target: human H4 receptor (Homo sapiens (Human), UniProt Q9H3N8)
# experiment: Binding assay on recombinant human histamine H4 receptor ([3H]histamine competition, SK-N-MC cell membranes)
# measurement-setup: membranes harvested with cell harvester; [3H]histamine 10 nM; average of results; read-out: Cell Harvester Ki
Below, each entry is listed with its recorded Ki.

Given the compound CNC1CCN(c2cnnc(NCc3ccccn3)c2)C1 (stereo in doubt) [Example 402] , write its reported Ki.
> 10 µM

Supply Ki value. Item: CN1CCN(c2cnnc(NCC3CCCC3)c2)CC1 [Example 408]
> 10 µM

Give reported Ki value for COc1ccc(CNc2cc(N3CC[C@@H](N)C3)cnn2)cc1 [Example 341]
> 10 µM

----------
# assay-target: human H4 receptor (Homo sapiens (Human), UniProt Q9H3N8)
# experiment: Binding assay on recombinant human histamine H4 receptor ([3H]histamine competition, SK-N-MC cell membranes)
# measurement-setup: membranes harvested with cell harvester; [3H]histamine 10 nM; average of results; read-out: Cell Harvester Ki
# Procedure: Binding Assay on Recombinant Human Histamine H4Receptor Cell pellets from SK-N-MC cells stably or transiently transfected with human H4 receptor (NCBI accession No. AF312230) were used for the binding assays. Cell pellets were homogenized in 50 mM Tris/5 mM EDTA buffer and supernatants from an 800 g spin were collected and recentrifuged at 30,000 g for 30 min. […] Filters were then dried, mixed with scintillant and radioactive counts were determined. […]
recorded-endpoint: Ki

compound	recorded-result
c1cc(N2CCNCC2)nc(NC[C@H]2CCCO2)n1 [Example 69]	> 10 µM
N[C@@H]1CCN(c2cnnc(NCc3ccccn3)c2)C1 [Example 337]	> 10 µM

Could you now consider this next compound?
Provide only the value of recorded Ki for COc1ccc(CNc2cc(N3CCNCC3)cnn2)cc1 [Example 347]
> 10 µM
